Tested on: ARPE-19 monolayers
Test: Suppression of gHSA-induced reduction of TEER in confluent ARPE-19 monolayers
Type: cell-based
Settings: read-out: EC50 for suppression of the decrease in TEER induced by gHSA; pretreatment; gHSA 100 μg/mL
MEASURED_QUANTITY: pEC50
When answering, recall that pEC50 equals minus log10 of the concentration in mol/L, and write that number alone.

Req: Notebook entry, ARPE-19 monolayers assay: pEC50 of Cc1cc(OCC(O)CNC(C)C)c(C)c(C)c1O (stereo not shown) = ?
Resp: 6.01
